- Tested on: mice
- assay.info: In vivo delivery of FLuc-mRNA lipid nanoparticles in mice, in vivo imaging (IVIS)
- measurement.context: Fluc-mRNA LNP; route IM; organ: spleen; formulation, molar ratio and N/P as in the table
Answer not fulfilled if IVIS is under 300000, and fulfilled if it is 300000 or more.

Answered examples (4):
>>> discrete_label("CCCCCCCCC(CCCCCC)C(=O)OCCCCNC(=O)C(O)CCN(CCCN(C)CCN(CC(O)C(=O)NCCCCOC(=O)C(CCCCCC)CCCCCCCC)CC(O)C(=O)NCCCCOC(=O)C(CCCCCC)CCCCCCCC)C(O)C(=O)NCCCCOC(=O)C(CCCCCC)CCCCCCCC (centres unmarked)")
"not fulfilled"
>>> discrete_label("CCCCCCC(CCCCCC)C(=O)NCCNC(=O)C(O)CN(CCN(C)CCN(CC(O)C(=O)NCCNC(=O)C(CCCCCC)CCCCCC)CC(O)C(=O)NCCNC(=O)C(CCCCCC)CCCCCC)CC(O)C(=O)NCCNC(=O)C(CCCCCC)CCCCCC (centres unmarked)")
"fulfilled"
>>> discrete_label("CCCCCCCC(CCCCCCC)OC(=O)CCCNC(=O)C(O)CN(CCCN(C)CCCN(CC(O)C(=O)NCCCC(=O)OC(CCCCCCC)CCCCCCC)CC(O)C(=O)NCCCC(=O)OC(CCCCCCC)CCCCCCC)CC(O)C(=O)NCCCC(=O)OC(CCCCCCC)CCCCCCC (centres unmarked)")
"not fulfilled"
>>> discrete_label("CCCCCCC(CCCCCC)C(=O)NCCNC(=O)C(O)CN(CCCN(C)CCCN(CC(O)C(=O)NCCNC(=O)C(CCCCCC)CCCCCC)CC(O)C(=O)NCCNC(=O)C(CCCCCC)CCCCCC)CC(O)C(=O)NCCNC(=O)C(CCCCCC)CCCCCC (centres unmarked)")
"fulfilled"

Here is the next item to consider.
Assess whether reported IVIS for CCCCCCCCC(CCCCCC)C(=O)OCCCCNC(=O)C(O)CN(CCCN(CC(O)C(=O)NCCCCOC(=O)C(CCCCCC)CCCCCCCC)CC(O)C(=O)NCCCCOC(=O)C(CCCCCC)CCCCCCCC)CCCN(CC(O)C(=O)NCCCCOC(=O)C(CCCCCC)CCCCCCCC)CC(O)C(=O)NCCCCOC(=O)C(CCCCCC)CCCCCCCC (centres unmarked) sits at 300000 or higher. not fulfilled

---

- System: mice
- assay.info: In vivo delivery of FLuc-mRNA lipid nanoparticles in mice, in vivo imaging (IVIS)
- measurement.context: IV, organ not given; DMG-PEG2000:DSPC:Chol:compound 1.40:11.15:38.95:48.50, N/P 30; Fluc-mRNA
Class field: derived from IVIS; ranges lower (below 300000), middle (300000 to below 900000), upper (900000 or more)

Answered examples (5):
>>> discrete_label("CCCCCCCCCCCCNC(=O)C(O)CN(C)CCCN(C)CCCN(C)CC(O)C(=O)NCCCCCCCCCCCC (stereo not drawn) [Compound L0311]")
"middle"
>>> discrete_label("CCCCCCOC(C)OCCCCCCOC(=O)C(O)CN(CCCN(C)CCCN(CC(O)C(=O)OCCCCCCOC(C)OCCCCCC)CC(O)C(=O)OCCCCCCOC(C)OCCCCCC)CC(O)C(=O)OCCCCCCOC(C)OCCCCCC (stereo not drawn) [Compound L0316]")
"upper"
>>> discrete_label("CCCCCCCCCCCCNC(=O)C(O)CNCCN(C)CCN(CC(O)C(=O)NCCCCCCCCCCCC)CC(O)C(=O)NCCCCCCCCCCCC (stereo not drawn) [Compound L0290]")
"upper"
>>> discrete_label("CCCCCCCCCCOC(=O)C(O)CN(C)CCCN(C)CCCN(C)CC(O)C(=O)OCCCCCCCCCC (stereo not drawn) [Compound L0315]")
"middle"
>>> discrete_label("CCCCCCCCCCCCNCC(O)CN(CCN(CCN(CC(O)CNCCCCCCCCCCCC)CC(O)C(=O)NCCCCCCCCCCCC)CC(O)C(=O)NCCCCCCCCCCCC)CC(O)C(=O)NCCCCCCCCCCCC (stereo not drawn) [Compound L0332]")
"middle"

For CCCCCCCCCCCCNC(=O)C(O)CNCCCN(C)CCCNCC(O)C(=O)NCCCCCCCCCCCC (stereo not drawn) [Compound L0289] , which IVIS bin applies? lower

For CCCCCCCCCCCCOC(=O)C(O)CN(C)CCCN(C)CCCN(C)CC(O)C(=O)OCCCCCCCCCCCC (stereo not drawn) [Compound L0310] , which IVIS bin applies? lower

---

Would you kindly list Particle size (nm) for each of these compounds?
- assay.info: Particle size and PDI of nucleic acid lipid nanoparticle preparations by dynamic light scattering
- Assay type: physicochemical
- measurement.context: DMG-PEG2000:DSPC:Chol:compound 1.40:11.15:38.95:48.50, N/P 20
Answers are plain numbers, in nm.

Below are worked cases with known answers.
>>> result_number("CCCCCCOCOCCCCCCOC(=O)C(O)CN(CCOCCOCCN(CC(O)C(=O)OCCCCCCOCOCCCCCC)CC(O)C(=O)OCCCCCCOCOCCCCCC)CC(O)C(=O)OCCCCCCOCOCCCCCC (stereo not drawn)")
158.43
>>> result_number("CCCCCCCC/C=C\\CCCCCCCCNC(=O)C(O)CN(C)CCN(C)CCN(C)CC(O)C(=O)NCCCCCCCC/C=C\\CCCCCCCC (stereo not drawn)")
81.09
>>> result_number("CCCCCCCCCCOC(=O)C(O)CN(CCCCCCCN(CC(O)C(=O)OCCCCCCCCCC)CC(O)C(=O)OCCCCCCCCCC)CC(O)C(=O)OCCCCCCCCCC (stereo not drawn)")
207.73
>>> result_number("CCCCCCCCCCNC(=O)C(O)CN(CCCCCN(CC(O)C(=O)NCCCCCCCCCC)CC(O)C(=O)NCCCCCCCCCC)CC(O)C(=O)NCCCCCCCCCC (stereo not drawn)")
120.33
>>> result_number("CCCCCCCCCCOC(=O)C(O)CN(CCCCCN(CC(O)C(=O)OCCCCCCCCCC)CC(O)C(=O)OCCCCCCCCCC)CC(O)C(=O)OCCCCCCCCCC (stereo not drawn)")
571.13

Turning now to a further compound:
Please give the measured Particle size (nm) for this compound: CCCCCCCCCCCCOC(=O)C(O)CN(CCOCCN(CC(O)C(=O)OCCCCCCCCCCCC)CC(O)C(=O)OCCCCCCCCCCCC)CC(O)C(=O)OCCCCCCCCCCCC (stereo not drawn) 172.73

---

- assay.info: Particle size and PDI of nucleic acid lipid nanoparticle preparations by dynamic light scattering
- Format: physicochemical
- measurement.context: DMG-PEG2000:DSPC:Chol:Lipid 1.40:11.15:38.95:48.50, N/P 18, mRNA LNP
// assign Fulfilled if Particle size falls strictly below 90 nm, else Not fulfilled (ties count as Not fulfilled)

Answered examples (2):
>>> discrete_label("CCCCCCCCCCNC(=O)C(O)CN(C)CCN(C)CCN(C)CC(O)C(=O)NCCCCCCCCCC (centres unmarked)")
"Not fulfilled"
>>> discrete_label("CCCCCCCCCCOC(=O)C(O)CN(C)CCN(C)CCN(C)CC(O)C(=O)OCCCCCCCCCC (centres unmarked)")
"Fulfilled"

Here is the next item to consider.
Check if Particle size falls below 90 nm for CC/C=C\CCOCOCCCCCCOC(=O)C(O)CN(C)CCN(C)CCN(C)CC(O)C(=O)OCCCCCCOCOCC/C=C\CC (centres unmarked) . Not fulfilled

---

- assay.info: Potential characterization of nucleic acid lipid nanoparticle preparations
- Type: physicochemical
- measurement.context: DMG-PEG2000:DSPC:Chol:compound 1.40:11.15:38.95:48.50, N/P 30
Would you kindly list Zeta potential (mV) for each of these compounds?
Answers are plain numbers, in mV.

>>> result_number("CCCCCCCCCCOC(=O)C(O)CN(CCCN(CC(O)C(=O)OCCCCCCCCCC)CC(O)C(=O)OCCCCCCCCCC)CCCN(CC(O)C(=O)OCCCCCCCCCC)CC(O)C(=O)OCCCCCCCCCC (centres unmarked)")
12.37
>>> result_number("CCCCCCCCCCCCNC(=O)C(O)CNCCN(C)CCN(CC(O)C(=O)NCCCCCCCCCCCC)CC(O)C(=O)NCCCCCCCCCCCC (centres unmarked)")
15.97
>>> result_number("CCCCCCOC(C)OCCCCCCOC(=O)C(O)CN(CCCN(C)CCCN(CC(O)C(=O)OCCCCCCOC(C)OCCCCCC)CC(O)C(=O)OCCCCCCOC(C)OCCCCCC)CC(O)C(=O)OCCCCCCOC(C)OCCCCCC (centres unmarked)")
18.97

# return Zeta potential (mV) for each item in the list
1. CCCCCCCCCCCCNC(=O)C(O)CNCCCN(C)CCCNCC(O)C(=O)NCCCCCCCCCCCC (centres unmarked)
2. CCCCCCCCCCOC(=O)C(O)CN(CCCN(C)CCCN(CC(O)C(=O)OCCCCCCCCCC)CC(O)C(=O)OCCCCCCCCCC)CC(O)C(=O)OCCCCCCCCCC (centres unmarked)

1. 11.00
2. 13.57
